assayed system: Peroxisome proliferator-activated receptor alpha (Homo sapiens)
Sequence (Q07869 whole entry): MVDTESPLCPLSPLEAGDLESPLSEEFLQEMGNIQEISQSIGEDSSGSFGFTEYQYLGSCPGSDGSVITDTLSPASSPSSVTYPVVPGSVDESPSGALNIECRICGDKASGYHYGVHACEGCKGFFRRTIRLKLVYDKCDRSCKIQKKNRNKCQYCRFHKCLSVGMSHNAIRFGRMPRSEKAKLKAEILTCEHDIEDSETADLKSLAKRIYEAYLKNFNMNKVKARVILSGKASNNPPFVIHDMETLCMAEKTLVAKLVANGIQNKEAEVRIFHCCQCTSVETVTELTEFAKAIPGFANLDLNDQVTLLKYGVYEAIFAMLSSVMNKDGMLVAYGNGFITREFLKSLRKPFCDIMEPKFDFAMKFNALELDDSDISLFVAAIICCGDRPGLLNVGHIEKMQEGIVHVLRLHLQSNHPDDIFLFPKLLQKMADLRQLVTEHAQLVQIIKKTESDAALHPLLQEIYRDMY
test method notes: Displacement of fluorescein labeled ligand from PPARalpha receptor by fluorescence polarization assay
quantity measured: log10 of IC50 (log10 of the value in nM)

molecular string	result number
Cc1oc(-c2ccccc2)nc1CCOc1cccc(CN(CC(=O)O)Cc2cccc3ccccc23)c1	1.53
Cc1oc(-c2ccccc2)nc1CCOc1ccc(CN(CC(=O)O)Cc2ccc3c(c2)OCO3)cc1	3.26
Cc1oc(-c2ccccc2)nc1CCOc1cccc(CN(CC(=O)O)Cc2cccc(Oc3ccccc3)c2)c1	1.92
CCCCCCCN(CC(=O)O)Cc1ccc(OCCc2nc(-c3ccccc3)oc2C)cc1	3.02
Cc1oc(-c2ccccc2)nc1CCOc1cccc(CN(CC(=O)O)Cc2ccc3ccccc3c2)c1	2.17

###

Below is a list of entries, each paired with its recorded log10(IC50) value.
assayed system: Peroxisome proliferator-activated receptor gamma (Homo sapiens)
Sequence (P37231 whole entry): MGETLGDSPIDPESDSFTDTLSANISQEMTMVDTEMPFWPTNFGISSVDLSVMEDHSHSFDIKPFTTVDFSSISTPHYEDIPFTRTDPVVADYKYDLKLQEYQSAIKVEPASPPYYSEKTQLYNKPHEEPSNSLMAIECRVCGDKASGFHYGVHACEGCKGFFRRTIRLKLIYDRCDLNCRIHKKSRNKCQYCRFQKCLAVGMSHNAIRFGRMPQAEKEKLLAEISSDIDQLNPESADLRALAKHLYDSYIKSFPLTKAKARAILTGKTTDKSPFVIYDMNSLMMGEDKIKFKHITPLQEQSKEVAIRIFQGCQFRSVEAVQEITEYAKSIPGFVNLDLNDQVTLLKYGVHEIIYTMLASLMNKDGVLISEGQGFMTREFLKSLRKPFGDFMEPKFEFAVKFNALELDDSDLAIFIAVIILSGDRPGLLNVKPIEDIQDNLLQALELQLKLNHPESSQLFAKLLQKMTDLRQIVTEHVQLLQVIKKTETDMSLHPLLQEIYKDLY
test method notes: Displacement of fluorescein labeled ligand from PPARgamma receptor by fluorescence polarization assay
quantity measured: log10(IC50) (log10 of the value in nM)

molecular string	result number
Cc1oc(-c2ccccc2)nc1CCOc1cccc(CN(CC(=O)O)Cc2ccc3ccccc3c2)c1	2.16
Cc1oc(-c2ccccc2)nc1CCOc1ccc(CN(CC(=O)O)Cc2ccc(-c3ccccc3Cl)o2)cc1	2.45
Cc1oc(-c2ccccc2)nc1CCOc1ccc(CN(CC(=O)O)Cc2ccc(OCc3ccccc3)cc2)cc1	2.45
Cc1oc(-c2ccccc2)nc1CCOc1cccc(CN(CCc2ccccc2)CC(=O)O)c1	2.13
Cc1oc(-c2ccccc2)nc1CCOc1ccc(CN(CC(=O)O)Cc2ccc3c(c2)OCO3)cc1	3.52

###

test method notes: Permeability from apical to basolateral side of Caco-2 cell membrane at pH 6.5
Type: ADME, cell-based
condition: human, Caco-2, pH 6.5; read-out: permeability
quantity measured: Papp A→B

molecular string	result
Cc1oc(-c2ccccc2)nc1CCOc1ccc(CN(CC(=O)O)Cc2ccc(Oc3ccccc3)cc2)cc1	< 1.5 ×10⁻⁶ cm/s

###

Below is a list of entries, each paired with its recorded remaining at 10 min value.
test method notes: Metabolic stability in mouse liver microsomes after 10 mins
Type: ADME, Microsome
condition: read-out: Stability
quantity measured: remaining at 10 min (%)

molecular string	units symbol	result number
Cc1oc(-c2ccccc2)nc1CCOc1ccc(CN(CC(=O)O)Cc2ccc(Oc3ccccc3)cc2)cc1	%	46
Cc1oc(-c2ccccc2)nc1CCOc1cccc(CN(CC(=O)O)Cc2ccccc2)c1	%	84
